- experimentalSystem: CaSla1-D1-D2
- assayDetails: SPOT peptide array binding signal intensity (averaged, normalized) (arbitrary units (background-subtracted, floor 0; scale differs between SH3 domains)); higher = stronger binding of the SH3 domain to the peptide
assayEndpoint: SPOT peptide array binding signal intensity

binder	valuePrefix	resultValue
PKMLPIPSKPTLFDL	=	188
VPPVPLPFGIPPFPM	=	34
RPPRPPPKPLHLRTE	=	1990
QPWTDQFEKLEKEVS	≤	0
